Ref: ChEMBL document CHEMBL5260852

Each record here notes measured concentration at 24 h.
test: Drug concentration in C57BL/6 mouse plasma at 6 mg/kg,iv and measured after 24 hrs by LC-MS/MS analysis; format: ADME, organism-based
Numbered stars: 1 amine (or outer) side, 2 acyl side, 3 side chain; on linkers, the order of the positions; unused ones are H or OH. Square brackets hold non-standard residues; d marks the D form. Peptide text beside a SMILES is read from it. * marks the point of attachment. X1 = N#Cc1cnc2ccc(-c3c(-c4ccc(F)c(Cl)c4)ncn3CCOCN*)nn12; C18 diacid = O=C(O)CCCCCCCCCCCCCCCCC(=O)*; γGlu = O=C(O)[C@H](CCC(=O)[*:2])N[*:1]; PABC = O=C(OCc1ccc(N[*:1])cc1)[*:2]; AEEA = NCCOCCOCC(=O)O
Dear colleague, please return just the value in µM, with no unit written.

concentration at 24 h for CC(C)C[C@H](NC(=O)COCCOCCNC(=O)COCCOCCNC(=O)CC[C@H](NC(=O)CC[C@H](NC(=O)CC[C@H](NC(=O)CCCCCCCCCCCCCCCCC(=O)O)C(=O)O)C(=O)O)C(=O)O)C(=O)N[C@@H](CO)C(=O)NCC(=O)N[C@@H](CCCCN)C(=O)Nc1ccc(COC(=O)NCOCCn2cnc(-c3ccc(F)c(Cl)c3)c2-c2ccc3ncc(C#N)n3n2)cc1 ({C18 diacid-γGlu-γGlu-γGlu-AEEA-AEEA}-LSGK[PABC]-X1) is 5.2

concentration at 24 h for CC(C)C[C@H](NC(=O)COCCOCCNC(=O)COCCOCCNC(=O)COCCOCCNC(=O)CC[C@H](NC(=O)CCCCCCCCCCCCCCCCC(=O)O)C(=O)O)C(=O)N[C@@H](CO)C(=O)NCC(=O)N[C@@H](CCCCN)C(=O)Nc1ccc(COC(=O)NCOCCn2cnc(-c3ccc(F)c(Cl)c3)c2-c2ccc3ncc(C#N)n3n2)cc1 ({C18 diacid-γGlu-AEEA-AEEA-AEEA}-LSGK[PABC]-X1) is 5.2

---

assay: Drug concentration in C57BL/6 mouse plasma at 6 mg/kg,iv and measured after 24 hrs by LC-MS/MS analysis; assay type: ADME, organism-based
Numbered stars: 1 amine (or outer) side, 2 acyl side, 3 side chain; on linkers, the order of the positions; unused ones are H or OH. Square brackets hold non-standard residues; d marks the D form. Peptide text beside a SMILES is read from it. * marks the point of attachment. X1 = N#Cc1cnc2ccc(-c3c(-c4ccc(F)c(Cl)c4)ncn3CCOCN*)nn12; C18 diacid = O=C(O)CCCCCCCCCCCCCCCCC(=O)*; γGlu = O=C(O)[C@H](CCC(=O)[*:2])N[*:1]; PABC = O=C(OCc1ccc(N[*:1])cc1)[*:2]; AEEA = NCCOCCOCC(=O)O
quantity-name: concentration at 24 h

Some entries whose results are on file:
CC(C)C[C@H](NC(=O)COCCOCCNC(=O)COCCOCCNC(=O)CC[C@H](NC(=O)CC[C@H](NC(=O)CCCCCCCCCCCCCCCCC(=O)O)C(=O)O)C(=O)O)C(=O)N[C@@H](CO)C(=O)NCC(=O)N[C@@H](CCCCN)C(=O)Nc1ccc(COC(=O)NCOCCn2cnc(-c3ccc(F)c(Cl)c3)c2-c2ccc3ncc(C#N)n3n2)cc1 ({C18 diacid-γGlu-γGlu-AEEA-AEEA}-LSGK[PABC]-X1) = 5.2 µM
CC(C)C[C@H](NC(=O)CC[C@H](NC(=O)CCCCCCCCCCCCCCCCC(=O)O)C(=O)O)C(=O)N[C@@H](CO)C(=O)NCC(=O)N[C@@H](CCCCN)C(=O)Nc1ccc(COC(=O)NCOCCn2cnc(-c3ccc(F)c(Cl)c3)c2-c2ccc3ncc(C#N)n3n2)cc1 ({C18 diacid-γGlu}-LSGK[PABC]-X1) = > 1 µM

With those in mind, consider the next compound.
concentration at 24 h for CC(C)C[C@H](NC(=O)COCCOCCNC(=O)COCCOCCNC(=O)CC[C@H](NC(=O)CCCCCCCCCCCCCCCCC(=O)O)C(=O)O)C(=O)N[C@@H](CO)C(=O)NCC(=O)N[C@@H](CCCCN)C(=O)Nc1ccc(COC(=O)NCOCCn2cnc(-c3ccc(F)c(Cl)c3)c2-c2ccc3ncc(C#N)n3n2)cc1 ({C18 diacid-γGlu-AEEA-AEEA}-LSGK[PABC]-X1) is > 1 µM
